target: P. falciparum apicoplast DNA polymerase (Pf-apPOL) (Plasmodium falciparum, UniProt Q8ILY1); experiment: Fluorescence-based high-throughput DNA polymerase assay (molecular beacon), primary screen and dose-response; assay type: biochemical; settings: DRC-1; read at 180'; concentration 40
Sequence (Q8ILY1 entry or part of it): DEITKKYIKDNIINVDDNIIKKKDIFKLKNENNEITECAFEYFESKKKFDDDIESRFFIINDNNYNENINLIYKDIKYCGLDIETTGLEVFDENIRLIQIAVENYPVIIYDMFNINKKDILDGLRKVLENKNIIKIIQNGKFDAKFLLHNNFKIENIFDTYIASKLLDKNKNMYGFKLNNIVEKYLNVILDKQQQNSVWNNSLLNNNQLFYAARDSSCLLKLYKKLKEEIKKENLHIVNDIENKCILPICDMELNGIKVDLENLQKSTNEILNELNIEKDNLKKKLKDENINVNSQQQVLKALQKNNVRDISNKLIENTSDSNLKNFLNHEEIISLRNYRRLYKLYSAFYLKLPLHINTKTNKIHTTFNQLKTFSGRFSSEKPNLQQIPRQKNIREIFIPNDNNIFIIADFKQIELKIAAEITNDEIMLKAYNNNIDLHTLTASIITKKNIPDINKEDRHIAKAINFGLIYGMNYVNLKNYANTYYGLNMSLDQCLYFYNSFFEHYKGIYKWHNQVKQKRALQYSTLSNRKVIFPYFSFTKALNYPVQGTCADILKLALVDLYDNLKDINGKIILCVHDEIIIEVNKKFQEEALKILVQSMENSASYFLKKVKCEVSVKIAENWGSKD
Classify as follows. Reported % inhibition apPOL 180' 40 greater than or equal to 50%: Met. Reported % inhibition apPOL 180' 40 below: Not met.

Prompt: Is % inhibition apPOL 180' 40 at least 50%? Consider Nc1cc(Oc2ccc(O)c(N)c2)ccc1O
Completion: Not met

###

# key: entry, value: % inhibition T4 10' 40
Biological target: bacteriophage T4 DNA polymerase (Enterobacteria phage T4, UniProt P04415)
Construct: made in house
Sequence (P04415 1-898): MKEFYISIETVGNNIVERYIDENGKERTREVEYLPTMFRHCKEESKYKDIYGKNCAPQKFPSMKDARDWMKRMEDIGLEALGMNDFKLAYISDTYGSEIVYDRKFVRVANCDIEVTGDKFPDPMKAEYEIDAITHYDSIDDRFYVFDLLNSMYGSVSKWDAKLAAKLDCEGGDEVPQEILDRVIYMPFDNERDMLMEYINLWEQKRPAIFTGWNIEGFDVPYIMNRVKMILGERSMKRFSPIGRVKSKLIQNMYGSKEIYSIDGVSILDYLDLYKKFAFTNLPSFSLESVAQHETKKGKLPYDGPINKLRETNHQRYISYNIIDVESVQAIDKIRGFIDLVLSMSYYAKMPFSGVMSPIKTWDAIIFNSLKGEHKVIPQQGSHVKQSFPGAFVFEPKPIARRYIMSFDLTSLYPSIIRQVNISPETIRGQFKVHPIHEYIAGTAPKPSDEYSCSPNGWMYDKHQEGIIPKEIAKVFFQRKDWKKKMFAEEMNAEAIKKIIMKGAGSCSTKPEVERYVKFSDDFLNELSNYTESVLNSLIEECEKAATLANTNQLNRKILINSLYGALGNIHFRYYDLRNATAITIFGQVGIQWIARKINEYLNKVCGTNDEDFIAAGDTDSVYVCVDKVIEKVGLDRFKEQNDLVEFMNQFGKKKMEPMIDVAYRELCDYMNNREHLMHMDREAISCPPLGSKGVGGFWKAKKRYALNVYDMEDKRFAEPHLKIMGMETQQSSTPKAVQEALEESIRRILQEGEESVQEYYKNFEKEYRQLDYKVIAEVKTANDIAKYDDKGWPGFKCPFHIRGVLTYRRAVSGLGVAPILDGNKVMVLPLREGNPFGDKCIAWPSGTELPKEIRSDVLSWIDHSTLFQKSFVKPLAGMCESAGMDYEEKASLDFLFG
Experiment: Counter-screen against bacteriophage T4 DNA polymerase
Type: biochemical
Settings: DRC-2; read at 10'; concentration 40
Please state the figure in %; there is no need to write the unit.

Sample answers from the record:
# compound, % inhibition T4 10' 40 / %
data = [
    ("Cn1nc(-c2nc(-c3ccccc3)no2)c2c1CCN(C(=O)Cc1cccs1)C2", 23),
    ("O=C1CSC2=NC3=C(CCc4ccccc43)C(c3cccs3)N12 (stereo not drawn)", 6),
]

API: the following record is the query input.
Prompt: Using the record for Nc1cc(Oc2ccc(O)c(N)c2)ccc1O , state its measured % inhibition T4 10' 40.
Completion: 3.18

###

# key: entry, value: % inhibition apPOL 180'
target: P. falciparum apicoplast DNA polymerase (Pf-apPOL) (Plasmodium falciparum, UniProt Q8ILY1); assay: Fluorescence-based high-throughput DNA polymerase assay (molecular beacon), primary screen and dose-response; type: biochemical; settings: DRC-2; 180'; concentration 5
Please state the figure in %; there is no need to write the unit.

Sample answers from the record:
# compound, quantity-unit, % inhibition apPOL 180'
data = [
    ("Cc1ccc2c(C(=O)NCCc3cccnc3)cc(NC(=O)C(C)C)cc2n1", "%", 2.66),
    ("O=C(NNC(=O)c1ccc(Cl)cc1)C(=O)NNC(=O)c1ccc(Cl)cc1", "%", 7.39),
    ("COc1ccc(C=C2Oc3c(ccc4c3CN(c3ccc5c(c3)OCO5)CO4)C2=O)cc1OC", "%", -86),
    ("CCOc1nc2cccc(C(=O)OC(C)OC(=O)OC3CCCCC3)c2n1Cc1ccc(-c2ccccc2-c2nnn[nH]2)cc1 (centres unmarked)", "%", 14),
]

Prompt: Using the record for Cn1nc(C(=O)N2CCc3c(nc4cc(-c5ccccc5)[nH]n4c3=O)C2)c2ccccc21 , state its measured % inhibition apPOL 180'.
Completion: 16

Prompt: Using the record for O=C1N=C(Nc2cccc(Cl)c2Cl)S/C1=C\c1ccco1 [Molecule 3, O=C1N=C(S/C/1=C\c1ccco1)Nc1cccc(c1Cl)Cl] , state its measured % inhibition apPOL 180'.
Completion: 31

Prompt: Using the record for CCN1C(=O)C(=Cc2cccc(OC)c2O)SC1=S , state its measured % inhibition apPOL 180'.
Completion: -102

Prompt: Using the record for NC(=O)c1cc[n+](CC2=C(C(=O)[O-])N3C(=O)[C@@H](NC(=O)[C@@H](c4ccccc4)S(=O)(=O)[O-])[C@H]3SC2)cc1.[Na+] , state its measured % inhibition apPOL 180'.
Completion: 9
